Entries and their measured electrical conductivity follow.
- assaySetup: 308.15 K; 101.33 kPa; Liquid; Alternating current cell with electrodes
Number only, in S/m; omit the unit.

Below, 3 molecules whose answers are already recorded.
molecule	readoutUnit	electrical conductivity
CCCCCC[n+]1ccn(C)c1.O=S(=O)([N-]S(=O)(=O)C(F)(F)F)C(F)(F)F	S/m	0.327
CCn1cc[n+](C)c1.O=S(=O)([N-]S(=O)(=O)C(F)(F)F)C(F)(F)F	S/m	1.23
CCCCn1cc[n+](C)c1.F[P-](F)(F)(F)(F)F [1-butyl-3-methylimidazolium hexafluorophosphate]	S/m	0.247

Next:
Task: Tell us which electrical conductivity value is on record for CCCC[n+]1ccn(C)c1.O=S(=O)([N-]S(=O)(=O)C(F)(F)F)C(F)(F)F
Result: 0.585
